target: Syk catalytic domain (aa 356-635 with a C-terminal His-tag) (Homo sapiens, UniProt P43405); construct: His-tag (C); made in house; experiment: In vitro Syk kinase activity measured by trFRET, Syk catalytic domain; format: biochemical; conditions: Syk catalytic domain (aa 356-635), trFRET, 0.001 mM ATP
Measured attribute: IC50

Chemical string: CCc1c(-c2cnn(C)c2C)[nH]c2ncc3cnn(C)c3c12
IC50: 1000 to 10000 nM

Chemical string: Cc1nc(-c2ccc(C(C)(C)O)cc2F)c2cnc3[nH]ccc3n12
IC50: 100 to 1000 nM

Chemical string: Cn1cc(-c2cc3c(ncc4cnn(C)c43)[nH]2)c2cc(C(=O)NCC(C)(C)CO)ccc21
IC50: < 100 nM

Let us move to another entry and its IC50.
Input: Read off the recorded IC50 for CN(C)c1nc(-c2ccc(C(C)(C)O)cc2)c2cnc3[nH]ccc3n12
Output: < 100 nM

====

target: Syk catalytic domain (aa 356-635 with a C-terminal His-tag) (Homo sapiens, UniProt P43405); construct: His-tag (C); made in house; assay: In vitro Syk kinase activity measured by trFRET, Syk catalytic domain; assay type: biochemical; details: Syk catalytic domain (aa 356-635), trFRET, 0.001 mM ATP
pIC50: −log10 of the molar value.
Measured attribute: pIC50

Input: Read off the recorded pIC50 for CS(=O)(=O)c1ccc(-c2ncn3c2cnc2[nH]ccc23)cc1
Output: > 7.00

Input: Read off the recorded pIC50 for COc1ccc(-c2nc(CNC3CCCCC3O)n3c2cnc2[nH]ccc23)cc1 (stereo not shown)
Output: 5.00 to 6.00

Input: Read off the recorded pIC50 for CCc1c(-c2cccc(S(=O)(=O)N(CC)CC)c2)[nH]c2ncc3cnn(C)c3c12
Output: 5.00 to 6.00

Input: Read off the recorded pIC50 for CS(=O)(=O)c1cccc(-c2cc3c(ncc4cnc([C@@H]5CC[C@H](N)C5)n43)[nH]2)c1 (relative stereo)
Output: 6.00 to 7.00

Input: Read off the recorded pIC50 for CCc1c(-c2ccc(OCCN3CCOCC3)cc2)[nH]c2ncc3cnn(C)c3c12
Output: 6.00 to 7.00

Input: Read off the recorded pIC50 for Cn1ncc2cnc3[nH]c(-c4cccc(S(=O)(=O)NCCN5CCOCC5)c4)cc3c21
Output: 6.00 to 7.00

Input: Read off the recorded pIC50 for COc1ccc2c(c1)c(-c1cc3c(ncc4cnc(C5CCCOC5)n43)[nH]1)cn2C (stereo not shown)
Output: > 7.00

====

In this section we review reported IC50 values for a set of compounds.
molecular target: Syk catalytic domain (aa 356-635 with a C-terminal His-tag) (Homo sapiens, UniProt P43405); construct: His-tag (C); made in house; assay: In vitro Syk kinase activity measured by trFRET, Syk catalytic domain; assay type: biochemical; conditions: Syk catalytic domain (aa 356-635), trFRET, 0.001 mM ATP

Examples from the recorded data:
Compound: CC(=O)NCc1nc(-c2ccc(C(C)(C)O)cc2)c2cnc3[nH]ccc3n12
Recorded value: 0.1 to 1 µM

Compound: Cn1ccc2cc(-c3cc4c(ncc5cnn(C)c54)[nH]3)ccc21
Recorded value: 0.1 to 1 µM

Compound: Cn1ncc2cnc3[nH]c(-c4ccc(OCCN5CCOCC5)cc4)cc3c21
Recorded value: < 0.1 µM

Compound: C=C(C)c1ccc(-c2nc(C3CC[C@H](NS(=O)(=O)C4CC4)C3)n3c2cnc2[nH]ccc23)cc1 (stereo partly shown)
Recorded value: 0.1 to 1 µM

Compound: Cn1cc(-c2cc3c(ncc4cnn(C)c43)[nH]2)c2ccc(C(=O)NCC(C)(C)CO)cc21
Recorded value: < 0.1 µM

Compound: COc1ccc2c(c1)c(-c1cc3c(ncc4cnc([C@@H]5CC[C@H](N)C5)n43)[nH]1)cn2C (relative stereo) [T.1.1, diacetate]
Recorded value: < 0.1 µM

Input: Read off the recorded IC50 for COc1ccc(-c2nc(C(C)C)n3c2cnc2[nH]ccc23)cc1
Output: 0.1 to 1 µM

Input: Read off the recorded IC50 for CC(C)(O)c1ccc(-c2nc(-c3cccnc3C#N)n3c2cnc2[nH]ccc23)cc1 [Example 6]
Output: 1 to 10 µM

Input: Read off the recorded IC50 for Cn1cc(-c2cc3c(ncc4cnn(C)c43)[nH]2)c2cc(F)ccc21
Output: < 0.1 µM

Input: Read off the recorded IC50 for Cc1ccc(-c2cc3c(ncc4cnc(N5CCCC5)n43)[nH]2)cc1
Output: 0.1 to 1 µM
